# Test system: H358 cells
# methodNotes: Antiproliferative activity against H358 cells (Cell Titer Glow, ultra-low attachment plate)
# Format: cell-based
# appliedConditions: Homo sapiens, NCI-H358, 72 h, three days after addition of compound
Form field: IC50 (one value per entry).
reportedEndpoint: IC50

• C=CC(=O)N1CC2(CCN(c3nc(N4CC5(CCCN5C5CC5)C4)nc4c(OCC(F)(F)F)c(-c5c(C)ccc6[nH]ncc56)c(C5CC5)cc34)CC2)C1 = < 300 nM
• C=CC(=O)N1CC2(CCN(c3nc(N4CC(N5CCS(=O)(=O)CC5)C4)nc4c(OCC(F)(F)F)c(-c5c(C)ccc6[nH]ncc56)c(C5CC5)cc34)CC2)C1 = 300 to 1000 nM
• C=CC(=O)N1CC2(CCN(c3nc(N4CC5(CCCN5C)C4)nc4c(OCC(F)(F)F)c(-c5c(C)ccc6[nH]ncc56)c(C=C)cc34)CC2)C1 = < 300 nM
• C=CC(=O)N1CC2(CCN(c3nc(N4CC(C(=O)N5CCN(C)CC5)C4)nc4c(OCC(F)(F)F)c(-c5c(C)ccc6[nH]ncc56)c(C5CC5)cc34)CC2)C1 = < 300 nM
• C=CC(=O)N1CC2(CCN(c3nc(N4CC5(CCCCN5CCOC)C4)nc4c(OCC(F)(F)F)c(-c5c(C)ccc6[nH]ncc56)c(C5CC5)cc34)CC2)C1 = < 300 nM

====

Form field: pIC50 (one value per entry).
# System: H358 cells
# methodNotes: Antiproliferative activity against H358 cells (Cell Titer Glow, ultra-low attachment plate)
# Format: cell-based
# appliedConditions: Homo sapiens, NCI-H358, 72 h, three days after addition of compound
pIC50: −log10 of the molar value.
reportedEndpoint: pIC50

• C=CC(=O)N1CC2(CCN(c3nc(N4CC(CC#N)(N(C)CCO)C4)nc4c(OCC(F)(F)F)c(-c5c(C)ccc6[nH]ncc56)c(C5CC5)cc34)CC2)C1 = > 6.52
• C=CC(=O)N1CC2(CCN(c3nc(N4CC(CN5CCCC5)C4)nc4c(OCC(F)(F)F)c(-c5c(C)ccc6[nH]ncc56)c(C5CC5)cc34)CC2)C1 = > 6.52
• C=CC(=O)N1CC2(CCN(c3nc(N4CCC5(CCN5CCOC)C4)nc4c(OCC(F)(F)F)c(-c5c(C)ccc6[nH]ncc56)c(C5CC5)cc34)CC2)C1 (stereo not drawn) = > 6.52
• C=CC(=O)N1CC2(CCN(c3nc(N4CC(N5CC6(CC6)C5)C4)nc4c(OCC(F)(F)F)c(-c5c(F)cccc5F)c(C5CC5)cc34)CC2)C1 = 6.00 to 6.52
• C=CC(=O)N1CC2(CCN(c3nc(N4CC(COC5CC5)C4)nc4c(OCC(F)(F)F)c(-c5c(C)ccc6[nH]ncc56)c(C5CC5)cc34)CC2)C1 = > 6.52
• C=CC(=O)N1CC2(CCN(c3nc(N4CC(CC#N)(N5CCC5)C4)nc4c(OCC(F)(F)F)c(-c5c(C)ccc6[nH]ncc56)c(C5CC5)cc34)CC2)C1 = > 6.52

====

# Tested on: H358 cells
# methodNotes: Antiproliferative activity against H358 cells (Cell Titer Glow, ultra-low attachment plate)
# Type: cell-based
# appliedConditions: Homo sapiens, NCI-H358, 72 h, three days after addition of compound
pIC50: −log10 of the molar value.
reportedEndpoint: pIC50

- C=CC(=O)N1CC2(CCN(c3nc(N4CC(OC5CCN(C)CC5)C4)nc4c(OCC(F)(F)F)c(-c5c(C)ccc6[nH]ncc56)c(C5CC5)cc34)CC2)C1: > 6.52
- C=CC(=O)N1CC2(CCN(c3nc(O[C@H]4C[C@H](N5CC6(CCC6)C5)C4)nc4c(OCC(F)(F)F)c(-c5c(C)ccc6[nH]ncc56)c(C5CC5)cc34)CC2)C1: 6.00 to 6.52
- C=CC(=O)N1CC2(CCN(c3nc(N4CC(OC5CN(C)C5)C4)nc4c(OCC(F)(F)F)c(-c5c(C)ccc6[nH]ncc56)c(C5CC5)cc34)CC2)C1: > 6.52
- C=CC(=O)N1CC2(CCN(c3nc(N4CC(N5CCSCC5)C4)nc4c(OCC(F)(F)F)c(-c5c(C)ccc6[nH]ncc56)c(C5CC5)cc34)CC2)C1: 6.00 to 6.52
- C=CC(=O)N1CC2(CCN(c3nc(N4CC(N5CC6(CC6)C5)C4)nc4c(OCC(F)(F)F)c(-c5c(C)ccc6[nH]ncc56)c(C=C)cc34)CC2)C1: > 6.52
- C=CC(=O)N1CC2(CCN(c3nc(N4CC(C(=O)N5CC6(CN(C)C6)C5)C4)nc4c(OCC(F)(F)F)c(-c5c(C)ccc6[nH]ncc56)c(C5CC5)cc34)CC2)C1: 6.00 to 6.52
- C=CC(=O)N1CC2(CCN(c3nc(N4CC(N(CC)CCCO)C4)nc4c(OCC(F)(F)F)c(-c5c(C)ccc6[nH]ncc56)c(C5CC5)cc34)CC2)C1: > 6.52
- C=CC(=O)N1CC2(CCN(c3nc(N4CC(N5CC6(CC6)C5)C4)nc4c(OCC(F)(F)F)c(-c5c(C)ccc6[nH]ncc56)c(C5CC5)cc34)CC2)C1: > 6.52
- C=CC(=O)N1CC2(CCN(c3nc(N4CC5(CCC5)C4)nc4c(OCC(F)(F)F)c(-c5c(C)ccc6[nH]ncc56)c(C5CC5)cc34)CC2)C1: 6.00 to 6.52
- C=CC(=O)N1CC2(CCN(c3nc(N4CC5(CCN5CC5CC5)C4)nc4c(OCC(F)(F)F)c(-c5c(C)ccc6[nH]ncc56)c(C5CC5)cc34)CC2)C1: > 6.52
- C=CC(=O)N1CC2(CCN(c3nc(N4CC5(CC(OC)CN5CC)C4)nc4c(OCC(F)(F)F)c(-c5c(C)ccc6[nH]ncc56)c(C5CC5)cc34)CC2)C1 (centres unmarked): > 6.52

====

Form field: pIC50 (one value per entry).
# System: H358 cells
# methodNotes: Antiproliferative activity against H358 cells (Cell Titer Glow, ultra-low attachment plate)
# Assay type: cell-based
# appliedConditions: Homo sapiens, NCI-H358, 72 h, three days after addition of compound
pIC50: −log10 of the molar value.
reportedEndpoint: pIC50

* C=CC(=O)N1CC2(CCN(c3nc(N4CC(n5cncn5)C4)nc4c(OCC(F)(F)F)c(-c5c(C)ccc6[nH]ncc56)c(C5CC5)cc34)CC2)C1 | < 6.00
* C=CC(=O)N1CC2(CCN(c3nc(N4CC5(CCN5C)C4)nc4c(OCC(F)(F)F)c(-c5c(C)ccc6[nH]ncc56)c(C5CC5)cc34)CC2)C1 | > 6.52
* C=CC(=O)N1CC2(CCN(c3nc(N4CC5(C=CCN5CC)C4)nc4c(OCC(F)(F)F)c(-c5c(C)ccc6[nH]ncc56)c(C5CC5)cc34)CC2)C1 | > 6.52
* C=CC(=O)N1CC2(CCN(c3nc(N4CCOC5(CN(CCOC)C5)C4)nc4c(OCC(F)(F)F)c(-c5c(C)ccc6[nH]ncc56)c(C5CC5)cc34)CC2)C1 | 6.00 to 6.52
* C=CC(=O)N1CC2(CCN(c3nc(N4CC(N5CC6(CC6)C5)C4)nc4c(OCC(F)(F)F)c(-c5c(F)ccc6[nH]cnc56)c(C5CC5)cc34)CC2)C1 | > 6.52
* C=CC(=O)N1CC2(CCN(c3nc(N4CC5(CCCN5CC)C4)nc4c(OCC(F)(F)F)c(-c5c(C)ccc6[nH]ncc56)c(C=C)cc34)CC2)C1 | > 6.52

====

Form field: IC50 (one value per entry).
# Test system: H358 cells
# methodNotes: Antiproliferative activity against H358 cells (Cell Titer Glow, ultra-low attachment plate)
# Assay type: cell-based
# appliedConditions: Homo sapiens, NCI-H358, 72 h, three days after addition of compound
reportedEndpoint: IC50

* C=CC(=O)N1CC2(CCN(c3nc(N4CC5(C=CCN5C)C4)nc4c(OCC(F)(F)F)c(-c5c(C)ccc6[nH]ncc56)c(C5CC5)cc34)CC2)C1 | < 300 nM
* C=CC(=O)N1CC2(CCN(c3nc(N4CC(N(C)CC#N)C4)nc4c(OCC(F)(F)F)c(-c5c(C)ccc6[nH]ncc56)c(C5CC5)cc34)CC2)C1 | 300 to 1000 nM
* C=CC(=O)N1CC2(CCN(c3nc(N4CC(N5CCC56CC6)C4)nc4c(OCC(F)(F)F)c(-c5c(C)ccc6[nH]ncc56)c(C5CC5)cc34)CC2)C1 | < 300 nM
* C=CC(=O)N1CC2(CCN(c3nc(N4CC(n5cccc5)C4)nc4c(OCC(F)(F)F)c(-c5c(C)ccc6[nH]ncc56)c(C5CC5)cc34)CC2)C1 | 300 to 1000 nM
* C=CC(=O)N1CC2(CCN(c3nc(N4CC5(CN(C)CCO5)C4)nc4c(OCC(F)(F)F)c(-c5c(C)ccc6[nH]ncc56)c(C5CC5)cc34)CC2)C1 | < 300 nM
* C=CC(=O)N1CC2(CCN(c3nc(N4CC5(C4)CC(F)(F)CN5C)nc4c(OCC(F)(F)F)c(-c5c(C)ccc6[nH]ncc56)c(C5CC5)cc34)CC2)C1 | < 300 nM
* C=CC(=O)N1CC2(CCN(c3nc(N4CC(N5CC6(CC6)C5)C4)nc4c(OCC(F)(F)F)c(-c5c(C)c(F)cc6[nH]ncc56)c(C5CC5)cc34)CC2)C1 | < 300 nM
* C=CC(=O)N1CC2(CCN(c3nc(N4CC5(CC(O)CN5CC)C4)nc4c(OCC(F)(F)F)c(-c5c(C)ccc6[nH]ncc56)c(C5CC5)cc34)CC2)C1 (stereo not shown) | < 300 nM
* C=CC(=O)N1CC2(CCN(c3nc(N4CC(C)(N5CCC5)C4)nc4c(OCC(F)(F)F)c(-c5c(C)ccc6[nH]ncc56)c(C5CC5)cc34)CC2)C1 | < 300 nM
* C=CC(=O)N1CC2(CCN(c3nc(N4CC5(CCCN5C)C4)nc4c(OCC(F)(F)F)c(-c5c(C)ccc6[nH]ncc56)c(C5CC5)cc34)CC2)C1 | < 300 nM
* C=CC(=O)N1CC2(CCN(c3nc(N4CC(N5CC(O)C5)C4)nc4c(OCC(F)(F)F)c(-c5c(C)ccc6[nH]ncc56)c(C5CC5)cc34)CC2)C1 | < 300 nM
* C=CC(=O)N1CC2(CCN(c3nc(N4CC(n5cccn5)C4)nc4c(OCC(F)(F)F)c(-c5c(C)ccc6[nH]ncc56)c(C5CC5)cc34)CC2)C1 | > 1000 nM
* C=CC(=O)N1CC2(CCN(c3nc(O[C@H]4C[C@H](N5CCC(F)(F)C5)C4)nc4c(OCC(F)(F)F)c(-c5c(C)ccc6[nH]ncc56)c(C5CC5)cc34)CC2)C1 | > 1000 nM
* C=CC(=O)N1CC2(CCN(c3nc(N4CC(CC#N)(N(C)C)C4)nc4c(OCC(F)(F)F)c(-c5c(C)ccc6[nH]ncc56)c(C5CC5)cc34)CC2)C1 | < 300 nM
* C=CC(=O)N1CC2(CCN(c3nc(N4CC5(CCCN5CCOC)C4)nc4c(OCC(F)(F)F)c(-c5c(C)ccc6[nH]ncc56)c(C5CC5)cc34)CC2)C1 | < 300 nM
* C=CC(=O)N1CC2(CCN(c3nc(N4CCOC5(CN(C)C5)C4)nc4c(OCC(F)(F)F)c(-c5c(C)ccc6[nH]ncc56)c(C5CC5)cc34)CC2)C1 | 300 to 1000 nM
* C=CC(=O)N1CC2(CCN(c3nc(N4CC(C)(CN5CCCC5)C4)nc4c(OCC(F)(F)F)c(-c5c(C)ccc6[nH]ncc56)c(C5CC5)cc34)CC2)C1 | < 300 nM
* C=CC(=O)N1CC2(CCN(c3nc(N4CC(N5CC6(CC6)C5)C4)nc4c(OCC(F)(F)F)c(-c5cc(O)cc6ccccc56)c(C5CC5)cc34)CC2)C1 | 300 to 1000 nM
* C=CC(=O)N1CC2(CCN(c3nc(N4CC(C(=O)N5CC(N(C)C)C5)C4)nc4c(OCC(F)(F)F)c(-c5c(C)ccc6[nH]ncc56)c(C5CC5)cc34)CC2)C1 | < 300 nM
* C=CC(=O)N1CC2(CCN(c3nc(N4CC(OCC5CN(C)C5)C4)nc4c(OCC(F)(F)F)c(-c5c(C)ccc6[nH]ncc56)c(C5CC5)cc34)CC2)C1 | < 300 nM
* C=CC(=O)N1CC2(CCN(c3nc(N4CC(N5CCC6(CC6)C5)C4)nc4c(OCC(F)(F)F)c(-c5c(C)ccc6[nH]ncc56)c(CC)cc34)CC2)C1 | < 300 nM
* C=CC(=O)N1CC2(CCN(c3nc(N4CC(O)C4)nc4c(OCC(F)(F)F)c(-c5c(C)ccc6[nH]ncc56)c(C5CC5)cc34)CC2)C1 | < 300 nM
